Hey, just so you know, these numbers are from a melting point compilation (Tetko et al.; mined from patent text by program, amines drawn as free bases though some values may be those of a salt).

Kindly state melting point for each of the entries shown.

Request the reported melting point associated with COC(=O)c1[nH]c2c(C)ccc(Cl)c2c1C
122 to 123 °C

Request the reported melting point associated with CN1C(c2cnc3ccccc3c2)c2ccccc2CC1(C)C (stereo not given)
116 to 118 °C

Request the reported melting point associated with CC(=O)c1cccc(-c2ccc3c(c2)C(C)(C)OC(=O)N3)c1
178 to 179 °C

Request the reported melting point associated with COc1ccccc1N1CCN(CC(=O)Nc2ccc3c(c2NC(=O)c2ccc(C)cc2)C(=O)c2ccccc2C3=O)CC1
215 to 216 °C

Request the reported melting point associated with COc1ccc2c(c1)c1c3c(c(-c4ccccc4Cl)cc1n2CCO)C(=O)NC3=O
255 to 257 °C

Request the reported melting point associated with CC(C(=O)Nc1ccc(C(=O)O)cc1)c1ccc2c(c1)C(C)(C)CCC2(C)C (stereo not given)
195 to 196 °C

Request the reported melting point associated with O=C1CSc2nc(Nc3ccc(N4CCOCC4)cc3)ncc2N1
288 to 290 °C

Request the reported melting point associated with COc1ccc(NC(=S)NCCO)c(C)c1
171 to 174 °C

Request the reported melting point associated with COC(=O)C(CC(=O)c1ccc(Oc2ccccc2)cc1)SC(C)=O (stereo not given)
59 to 61 °C

Request the reported melting point associated with COc1ccc(NC(=O)c2ccc(F)c(F)c2)cc1NS(=O)(=O)c1cccc(C#N)c1
212 to 214 °C

* * *

reported endpoint: melting point

Request the reported melting point associated with COc1ccc(COc2cccnc2NC(=N)Nc2ccccc2)cc1
141 to 143 °C

Request the reported melting point associated with CS(=O)(=O)c1c(C#N)nn(-c2c(Cl)cc(C(F)(F)F)cc2Br)c1N
235 to 238 °C

Request the reported melting point associated with CC(Oc1ccc(Oc2nc3ccc(Cl)cc3s2)cc1)C(=S)OC[Si](C)(C)C (centres undefined)
90 °C

Request the reported melting point associated with CCCc1nc2c(N)nc3ccccc3c2n1CCCCN(O)C(C)=O
191 to 193 °C

Request the reported melting point associated with CC(C)CCNC(=O)c1ccccc1-c1ccccc1CN1C(=O)c2ccccc2C1=O
169 °C

Request the reported melting point associated with Cc1oc(-c2ccccc2)nc1COc1ccc(Cn2cc(CCC(=O)O)c(OCc3ccccc3)n2)cc1
108 to 109 °C

Request the reported melting point associated with Cc1nc(N2N=C(c3ccc([N+](=O)[O-])cc3)c3cc4c(cc3CC2C)OCO4)cs1 (centres undefined)
178 to 190 °C

Request the reported melting point associated with N#Cc1ccc2c(c1)C1OC1C1(CCCCC1)O2 (centres undefined)
222 to 225 °C

Request the reported melting point associated with Cc1cc(C2(C(F)(F)F)CC2(C#N)C#N)ccc1NC(=O)c1cccc(I)c1C(=O)NC(C)C (centres undefined)
218 to 221 °C

* * *

Kindly state melting point for each of the entries shown.

Request the reported melting point associated with Cc1nc(N2CCN(Cc3ccc(F)cc3)C2=O)sc1C(=O)NCc1csc(C(C)C)n1
170 to 172 °C

Request the reported melting point associated with CC[C@H](COC)n1cc(Br)nc(N2CCc3cc(Br)cc(Cl)c32)c1=O
118 °C

Request the reported melting point associated with C=C(COc1ccccc1C=O)C(=O)OC
50 to 52 °C

Request the reported melting point associated with CS(=O)(=O)c1ccc(-c2c(-c3ccc(F)cc3)c(OCC(=O)c3cccs3)nn2CC(=O)c2cccs2)cc1
136 to 138 °C

Request the reported melting point associated with Cc1ccc2c(=O)[nH]c(=O)n(C(C)C)c2c1
250 to 251 °C

Request the reported melting point associated with O=C(Nc1ccc(C(=O)N2Cc3cccnc3Nc3ccccc32)c(Cl)c1)c1ccccc1-c1ccccc1
147 to 165 °C

Request the reported melting point associated with CCc1nc2c(cnn2CC)c(NC2CCOCC2)c1CNC(=O)c1cccc(C(=O)NCc2ccc(F)c(-c3cccc(CN4CCCNCC4)c3)c2)c1
145 to 148 °C

Request the reported melting point associated with CCC(CC)(CC(=O)Nc1cccc(OCc2ccc3ccc(C(C)=O)cc3n2)c1)C(=O)O
164 °C

Request the reported melting point associated with CCCCCCCCOc1ccc(Cl)c2c(=O)c3ccccc3sc12
86 to 87.5 °C
